test: Cell Viability - LYMP2-001 (AID 921);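 note: cells exposed to compound for 24 h at 37 °C; nearly all actives have a fitted effect of over 70% in size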
condition info: LYMP2-001 lymphoblastoid cell viability; series mostly up to 92.2 µM
Inconclusive results are not listed. Active and inactive are the calls of the source. Calls come from the whole dose curve; as a rule, active = well fitted cell-killing curve with a large enough effect; inconclusive = small, poorly fitted or top-dose-only effect; inactive = no such curve, though single readings can be large or run the other way.
Output constraint: value belongs to 1 (active), 0 (inactive)

Observe how each entry below is paired with its result.
{"compound": "O=c1cc(-c2ccc(O)cc2)oc2cc(O)cc(O)c12", "classification": 0}
{"compound": "CCCCC1C(=O)N(c2ccccc2)N(c2ccccc2)C1=O", "classification": 0}
{"compound": "CC(=O)O[C@]1(C(C)=O)CC[C@H]2[C@@H]3C=C(Cl)C4=CC(=O)[C@@H]5C[C@@H]5[C@]4(C)[C@H]3CC[C@@]21C", "classification": 0}
{"compound": "CCCNC(=O)NS(=O)(=O)c1ccc(Cl)cc1", "classification": 0}

(Q) Tell me the assay call for O=c1[nH]cnc2c1ncn2[C@H]1CC[C@@H](CO)O1 please.
(A) 0

(Q) Tell me the assay call for O=c1c(O)c(-c2ccc(O)cc2)oc2cc(O)cc(O)c12 please.
(A) 0

(Q) Tell me the assay call for CCn1cc(C(=O)O)c(=O)c2ccc(C)nc21 please.
(A) 0

(Q) Tell me the assay call for CC1=C(/C=C/C(C)=C/C=C/C(C)=C/C(=O)Nc2ccc(O)cc2)C(C)(C)CCC1 please.
(A) 1

(Q) Tell me the assay call for O=C1NC(=O)C(c2ccccc2)(c2ccccc2)N1 please.
(A) 0

(Q) Tell me the assay call for CN(C)CCC(c1ccccc1)c1ccccn1 (stereo unspecified) please.
(A) 0

(Q) Tell me the assay call for O=C(O)Cc1cccc2ccccc12 please.
(A) 0
